Overview of reported fractional inhibitory concentration index (FICI) across a group of compounds:
Test system: Escherichia coli
Assay: Synergistic antibacterial activity against Escherichia coli CG-4 expressing MCR-1 and NDM-1 assessed as fractional inhibitory concentration index in presence of polymyxin B by checkerboard assay
Format: functional
I'd appreciate a reply containing only the number, no unit.

SMILES_INPUT: CC(C)(C)c1cc(/C=C/c2ccc(N3CCCC3)cc2)cc(C(C)(C)C)[o+]1.O=S(=O)([O-])C(F)(F)F
RECORDED_MEASUREMENT: 0.188
//
SMILES_INPUT: CN(C)c1ccc(/C=C/c2cc(C(C)(C)C)[o+]c(C(C)(C)C)c2)cc1.O=S(=O)([O-])C(F)(F)F
RECORDED_MEASUREMENT: 0.188
//
SMILES_INPUT: CCN(CC)c1ccc(/C=C/c2cc(C(C)(C)C)[o+]c(C(C)(C)C)c2)cc1.O=S(=O)([O-])C(F)(F)F
RECORDED_MEASUREMENT: 0.375

--- query ---
I am curious: what fractional inhibitory concentration index (FICI) value has been reported for CN1CCOc2cc(/C=C/c3cc(C(C)(C)C)[o+]c(C(C)(C)C)c3)ccc21.O=S(=O)([O-])C(F)(F)F ?
0.156
